Assign GELATION to each entry below.
# test: Peptide hydrogel formation, vial-inverting method
# Assay type: physicochemical
# Parameters: key: 0: no hydrogel; 1: hydrogel
# assay conditions: peptide concentration 60 mM; vial-inverting method; 1 = hydrogel, 0 = no hydrogel
Where a SMILES comes first, the peptide text is derived from it.
Answers are plain numbers.

Previously resolved entries follow.
| molecule | endpoint name | result |
| --- | --- | --- |
| CC(C)[C@H](NC(=O)[C@@H]1CCCN1)C(=O)N[C@@H](Cc1ccccc1)C(=O)N[C@@H](Cc1c[nH]c2ccccc12)C(=O)O [PVFW] (H-PVFW-OH) | GELATION | 1 |
| CC[C@H](C)[C@H](NC(=O)[C@@H](NC(=O)[C@@H](N)CC(C)C)C(C)C)C(=O)N[C@@H](Cc1ccccc1)C(=O)O [LVIF] (H-LVIF-OH) | GELATION | 1 |

Now, please, on to the next molecule.
IN: Look up and report measured GELATION for this entry: CC(C)C[C@H](NC(=O)[C@@H](NC(=O)CN)C(C)C)C(=O)N[C@@H](Cc1ccccc1)C(=O)O [GVLF] (H-GVLF-OH)
OUT: 1

====

# test: Peptide hydrogel formation, vial-inverting method
# Format: physicochemical
# assay conditions: concentration at which the state was recorded: lowest of 30, 60, 90, 120 mM that gave a gel; 120 mM for non-gelating peptides
Where a SMILES comes first, the peptide text is derived from it.
Assign Concentration to each entry below.
One number for each entry, in µM.

| molecule | Concentration, µM |
| --- | --- |
| CC[C@H](C)[C@H](N)C(=O)N[C@@H](Cc1c[nH]c2ccccc12)C(=O)N1CCC[C@H]1C(=O)N[C@@H](Cc1c[nH]c2ccccc12)C(=O)O [IWPW] (H-IWPW-OH) | 120000 |
| CSCC[C@H](NC(=O)[C@H](CCSC)NC(=O)[C@H](Cc1ccccc1)NC(=O)[C@@H](N)C(C)C)C(=O)O [VFMM] (H-VFMM-OH) | 120000 |
| CC(C)C[C@H](NC(=O)[C@H](CC(C)C)NC(=O)[C@@H](N)CC(C)C)C(=O)N[C@@H](Cc1ccccc1)C(=O)O [LLLF] (H-LLLF-OH) | 30000 |
| CSCC[C@H](N)C(=O)N[C@H](C(=O)N[C@@H](CCC(N)=O)C(=O)NCC(=O)O)C(C)C [MVQG] (H-MVQG-OH) | 120000 |
| C[C@H](NC(=O)[C@@H](N)Cc1ccc(O)cc1)C(=O)N[C@@H](Cc1c[nH]c2ccccc12)C(=O)N[C@@H](Cc1ccccc1)C(=O)O [YAWF] (H-YAWF-OH) | 60000 |

Now, please, on to the next molecule.
IN: Look up and report measured Concentration for this entry: NCCCC[C@H](NC(=O)[C@@H](N)Cc1c[nH]c2ccccc12)C(=O)N[C@@H](Cc1ccccc1)C(=O)N[C@@H](Cc1ccccc1)C(=O)O [WKFF] (H-WKFF-OH)
OUT: 60000

====

# test: Peptide hydrogel formation, vial-inverting method
# Assay type: physicochemical
# assay conditions: concentration at which the state was recorded: lowest of 30, 60, 90, 120 mM that gave a gel; 120 mM for non-gelating peptides
Where a SMILES comes first, the peptide text is derived from it.
endpoint name: Concentration (µM)
Numbers only, in µM.

Previously resolved entries follow.
| compound | result |
| --- | --- |
| CSCC[C@H](NC(=O)[C@@H](N)Cc1ccccc1)C(=O)N[C@@H](Cc1ccc(O)cc1)C(=O)N[C@@H](CO)C(=O)O [FMYS] (H-FMYS-OH) | 120000 |
| N[C@@H](Cc1c[nH]c2ccccc12)C(=O)N[C@@H](Cc1c[nH]c2ccccc12)C(=O)N[C@@H](CS)C(=O)N1CCC[C@H]1C(=O)O [WWCP] (H-WWCP-OH) | 120000 |
| CC[C@H](C)[C@H](N)C(=O)N[C@@H](Cc1ccccc1)C(=O)N[C@@H](Cc1ccc(O)cc1)C(=O)N[C@H](C(=O)O)[C@@H](C)O [IFYT] (H-IFYT-OH) | 60000 |
| CC[C@H](C)[C@H](N)C(=O)N[C@@H](Cc1ccccc1)C(=O)N[C@H](C(=O)N[C@@H](Cc1ccc(O)cc1)C(=O)O)[C@@H](C)CC [IFIY] (H-IFIY-OH) | 60000 |
| N[C@@H](Cc1c[nH]c2ccccc12)C(=O)N[C@@H](Cc1c[nH]c2ccccc12)C(=O)N[C@@H](Cc1c[nH]c2ccccc12)C(=O)N[C@@H](Cc1c[nH]c2ccccc12)C(=O)O [WWWW] (H-WWWW-OH) | 120000 |

Now, please, on to the next compound.
IN: Look up and report measured Concentration for this entry: CC(C)C[C@H](N)C(=O)N[C@H](C(=O)N[C@@H](Cc1ccccc1)C(=O)NCC(=O)O)C(C)C [LVFG] (H-LVFG-OH)
OUT: 60000
